src = PubChem BioAssay (NCI)

# Test system: OVCAR-5 ovarian
# measurement.protocol: NCI tumour cell line growth inhibition, 48 h
measure: TGI

Ask: Reported TGI, compound CC(C)(C)C1=CC(=N/N=c2\scc(-c3ccccc3)n2Cc2ccccc2)C=C(C(C)(C)C)C1=O : ____
Reply: > 100 µM

Ask: Reported TGI, compound C=CC[P@]1(=O)O[C@H](c2ccccc2)C(C)N1C(C)C (stereo partly specified) : ____
Reply: > 100 µM

Ask: Reported TGI, compound NCCCn1c(Cl)nc2ccccc21 : ____
Reply: > 100 µM

Ask: Reported TGI, compound O=S1(=O)OCCOS(=O)(=O)C1(F)Cc1ccccc1 : ____
Reply: > 100 µM

Ask: Reported TGI, compound CC(NCCN(C)C)C1CCC2C3CCc4cc(O)ccc4C3CCC12C (stereo unspecified) : ____
Reply: 18.3 µM

Ask: Reported TGI, compound O=[N+]([O-])c1ccc2c(c1)nc1n2C(c2c(F)cccc2F)SC1 (stereo unspecified) : ____
Reply: > 100 µM

Ask: Reported TGI, compound COc1ccc2c(c1)/C(=C\c1c(Cl)nc3n1CCS3)C(=O)N2 : ____
Reply: 74.1 µM

Ask: Reported TGI, compound Cc1ccc([N+](=O)[O-])cc1S(=O)(=O)Nc1ccc(C2=NN(S(=O)(=O)c3cc([N+](=O)[O-])ccc3C)C(c3cccs3)C2)cc1 (stereo unspecified) : ____
Reply: > 100 µM

Ask: Reported TGI, compound CC1=CC(=O)NP(=O)(Oc2ccc(Cl)cc2)N1 (stereo unspecified) : ____
Reply: > 100 µM

Ask: Reported TGI, compound COc1ccc(Cn2cc3c(c2-c2ccccc2)CCc2cnoc2-3)cc1 : ____
Reply: > 100 µM

Ask: Reported TGI, compound O=C(c1ccccc1)c1nc2c(Cl)ccc(Cl)c2cc1C(Br)Br : ____
Reply: 2.29 µM

Ask: Reported TGI, compound Cc1nc2c(Cl)cc(Cl)cc2c2c1CCO2 : ____
Reply: > 100 µM

Ask: Reported TGI, compound COc1ccc(-n2nc(C)c3c(Nc4ccc(NC(=O)Nc5cccc(C(F)(F)F)c5)cc4)ncnc32)cc1 : ____
Reply: 4.12 µM

Ask: Reported TGI, compound CC1=C(C)C(=O)OC(C(C)(O)C2(O)CC3OC34C3CC(O)C56OC5C=CC(=O)C6(C)C3CCC42C)C1 (stereo unspecified) : ____
Reply: 10.4 µM

Ask: Reported TGI, compound CC(C)CC1c2[nH]c3ccccc3c2C[C@H]2C(=O)NC(Cc3c[nH]c4ccccc34)C(=O)N12 (stereo partly specified) : ____
Reply: 48 µM

Ask: Reported TGI, compound COC(=O)[C@@]12CSC[C@]1(C(=O)OC)N[C@@H](c1ccccc1O)C2 : ____
Reply: > 100 µM

* * *

# Test system: OVCAR-8 ovarian
# measurement.protocol: NCI tumour cell line growth inhibition, 48 h
Task for the reader: assign each of the following molecules its reported TGI.

Ask: Reported TGI, molecule CCC1(CC)C(=O)NC(=O)NC1=S : ____
Reply: > 100 µM

Ask: Reported TGI, molecule COc1ccc([N+](=O)[O-])c2c(NCCCN(C)C)c(C)c(C)nc12 : ____
Reply: > 100 µM

Ask: Reported TGI, molecule CN1C/C(=C\c2cccs2)C2=NN(c3ccccc3)C(c3cccs3)C2C1 (stereo not drawn) : ____
Reply: > 100 µM

Ask: Reported TGI, molecule Cc1cccc2c(=O)c3cccc([C@H](C)C(=O)O)c3oc12 : ____
Reply: > 100 µM

Ask: Reported TGI, molecule CC1=C[P+](c2ccccc2)(c2ccccc2)c2ccccc2O1 : ____
Reply: > 100 µM

Ask: Reported TGI, molecule Cc1cccc(CNc2c3ccccc3nc3ccccc23)c1 : ____
Reply: 9.82 µM

Ask: Reported TGI, molecule CCO/N=C\c1ccc2oc(-c3ccccc3)cc(=O)c2c1 : ____
Reply: 12.5 µM

Ask: Reported TGI, molecule O=C1OC(c2ccc([N+](=O)[O-])cc2)=N/C1=C\c1ccc(Cl)cc1 : ____
Reply: > 100 µM

Ask: Reported TGI, molecule O=CNC(Cc1cnc[nH]1)C(=O)O (stereo not drawn) : ____
Reply: > 100 µM

Ask: Reported TGI, molecule CCC(C)C(Nc1c2ccccc2nc2c(C(=O)NCCN(C)C)cccc12)C(=O)O (stereo not drawn) : ____
Reply: > 100 µM

Ask: Reported TGI, molecule C[C@H]1C[C@@H](n2c(Nc3ccc(OC(F)(F)F)cc3)nc3cc(CCC(=O)O)ccc32)CC(C)(C)C1 : ____
Reply: 35.1 µM

Ask: Reported TGI, molecule Cn1c(=O)nc2n(-c3ccc(Br)cc3)c3ccccc3nc-2c1=O : ____
Reply: 18.3 µM

Ask: Reported TGI, molecule Cc1c(C)c2cc3c(=O)c(CCl)coc3c(C)c2oc1=O : ____
Reply: > 100 µM

Ask: Reported TGI, molecule O=[N+]([O-])c1ccccc1/C=N\NC(=S)N/N=C/c1ccccc1[N+](=O)[O-] : ____
Reply: > 100 µM

Ask: Reported TGI, molecule N[C@H]1CCC[C@@H](O)C1O (stereo partly drawn) : ____
Reply: > 100 µM

Ask: Reported TGI, molecule CC1OC(NCCNCCNC2OC(C)C(O)C(O)C2O)C(O)C(O)C1O (stereo not drawn) : ____
Reply: > 100 µM

Ask: Reported TGI, molecule COc1ccc2c(c1OC)C(=O)C2 : ____
Reply: > 100 µM

Ask: Reported TGI, molecule CCN(Cc1cc(Cl)cc(C)c1O)Cc1c(O)ccc2ccccc12 : ____
Reply: 37.7 µM

Ask: Reported TGI, molecule N#CN1CC[C@@H]2CC3(CCC2C1)OCCO3 (stereo partly drawn) : ____
Reply: > 100 µM

Ask: Reported TGI, molecule O=C(Nc1cc(Cl)c(I)c(Cl)c1)C(F)(F)F : ____
Reply: 56.8 µM

Ask: Reported TGI, molecule O=C(CCCc1cccc2[nH]c3c(c12)CN(Cc1ccccc1)CC3)c1ccc(F)cc1 : ____
Reply: > 100 µM

Ask: Reported TGI, molecule CCOC(=O)/C(C(N)=O)=C(\O)C(=O)/C=C(\O)c1ccc(Cl)cc1 : ____
Reply: 31.7 µM

Ask: Reported TGI, molecule COc1cc(C[C@@]2(C)[C@@H]3CCC[C@H](CO)[C@@]3(C)CC[C@@H]2C)c(Cl)c(OC)c1 : ____
Reply: 31.7 µM

* * *

# System: SW-620 colon
# measurement.protocol: NCI tumour cell line growth inhibition, 48 h; in the data active = GI50 below about 0.43 µM; inactive = the rest
Response enum: active, inactive

Ask: Hey, what did the test say about Nc1c(C(=O)c2cccc(-c3cccnc3)c2)cnn1-c1ccc(F)cc1 ?
Reply: inactive

Ask: Hey, what did the test say about O=C(O)CCCN1C(=O)/C(=C/C(Cl)=C/c2ccccc2)SC1=S ?
Reply: inactive

Ask: Hey, what did the test say about CN1CCN(C2=C(Cl)C(=O)c3ccccc3C2=O)CC1 ?
Reply: inactive

Ask: Hey, what did the test say about O=[N+]([O-])c1ccc(Sc2cccc[n+]2[O-])c2nonc12 ?
Reply: inactive

Ask: Hey, what did the test say about CN(C)S(=O)(=O)c1cccc(C(=O)Nc2nc(-c3ccc(F)c(F)c3)cs2)c1 ?
Reply: inactive

Ask: Hey, what did the test say about COc1ccc(C2=C(c3ccc(OC)cc3)C(=O)OC2)cc1 ?
Reply: active

Ask: Hey, what did the test say about CN(C)Cc1ccc(NC(=O)c2cncc(C#Cc3cnc(N)c4ncccc34)c2)cc1C(F)(F)F ?
Reply: inactive

Ask: Hey, what did the test say about O=C1c2c(c3c4cc(F)ccc4oc3c3[nH]c4ccccc4c23)C(=O)N1O ?
Reply: inactive

Ask: Hey, what did the test say about ClCCCN1CCN(CCCl)CC1 ?
Reply: inactive

Ask: Hey, what did the test say about O=C1/C(=C/c2ccc(F)cc2)COc2ccc(O)c(O)c21 ?
Reply: inactive

* * *

Task for the reader: assign each of the following compounds its reported TGI.
# System: M14 melanoma
# measurement.protocol: NCI tumour cell line growth inhibition, 48 h

Ask: Reported TGI, compound COc1ccc2nc3cc(Cl)ccc3c(Nc3ccccc3-c3ccccc3Nc3c4ccc(Cl)cc4nc4ccc(OC)cc34)c2c1 : ____
Reply: > 87.5 µM

Ask: Reported TGI, compound Cc1[nH]n(-c2nc(-c3ccccc3)cc(=O)[nH]2)c(=O)c1CCO : ____
Reply: > 100 µM

Ask: Reported TGI, compound CC(C)(C)OC(=O)N(CCCCN(CCCn1c2c(c3ccccc3c1=O)C(=O)c1ccccc1-2)C(=O)OC(C)(C)C)CCCn1c2c(c3ccccc3c1=O)C(=O)c1ccccc1-2 : ____
Reply: > 100 µM

Ask: Reported TGI, compound O=C(NCCCN1CCN(CCCNC(=O)c2cccc3ccccc23)CC1)c1cccc2ccccc12 : ____
Reply: > 100 µM

Ask: Reported TGI, compound Cc1[nH]c(=O)nc(N/N=C/c2c3ccccc3c(Cl)c3ccccc23)c1C(=O)Nc1ccc(Cl)cc1 : ____
Reply: > 100 µM

Ask: Reported TGI, compound O=c1[nH]c2nc3ccccc3c(=O)n2nc1Cc1ccccc1 : ____
Reply: > 100 µM

Ask: Reported TGI, compound Cn1c(=O)nc2n(-c3ccc(Br)cc3)c3ccccc3nc-2c1=O : ____
Reply: 15.5 µM

Ask: Reported TGI, compound CC(=O)CC[N+](C)(C)C : ____
Reply: 52.1 µM

Ask: Reported TGI, compound Cc1cn(S(=O)(=O)c2ccccc2)c2c(OCc3ccccc3)cc([N+](=O)[O-])cc12 : ____
Reply: > 100 µM

Ask: Reported TGI, compound Nc1[nH]nc(Nc2ccccc2)c1-c1nc2ccccc2s1 : ____
Reply: 3.58 µM

Ask: Reported TGI, compound CN1CCN(C2=C(Cl)C(=O)c3ccccc3C2=O)CC1 : ____
Reply: 3.23 µM

Ask: Reported TGI, compound CCC(C)C(Nc1c2ccccc2nc2c(C(=O)NCCN(C)C)cccc12)C(=O)O (stereo not given) : ____
Reply: 44.1 µM

Ask: Reported TGI, compound CC(O)C(CO)NC(=O)C1CSSCC(NC(=O)C(N)Cc2ccccc2)C(=O)NC(Cc2ccccc2)C(=O)NC(Cc2c[nH]c3ccccc23)C(=O)NC(CCCCN)C(=O)NC(C(C)O)C(=O)N1 (stereo not given) : ____
Reply: > 100 µM

Ask: Reported TGI, compound NCCCn1c(Cl)nc2ccccc21 : ____
Reply: > 100 µM

Ask: Reported TGI, compound O=c1c(NCc2ccccc2)c(C2(c3ccccc3F)SCCCS2)c1=O : ____
Reply: > 100 µM

Ask: Reported TGI, compound COc1ccc2c(c1)/C(=C\c1c(Cl)nc3n1CCS3)C(=O)N2 : ____
Reply: > 100 µM

Ask: Reported TGI, compound O=C(Cn1c2ccc(Br)cc2c2nc3ccccc3nc21)NCc1ccccc1 : ____
Reply: > 100 µM

Ask: Reported TGI, compound N[C@H]1CCC[C@@H](O)C1O (stereo not given in full) : ____
Reply: > 100 µM

Ask: Reported TGI, compound COc1ccc2c(=O)c(-c3cc(OC)c(OC)cc3OC)coc2c1 : ____
Reply: > 100 µM

Ask: Reported TGI, compound O=C1NC(c2ccccc2)(c2ccccc2)C(=O)N1CCCCCCN1C(=O)NC(c2ccccc2)(c2ccccc2)C1=O : ____
Reply: > 100 µM
